Below is a list of entries, each paired with its recorded viability, T/C value.
System: 695427-040-R-J1-PDC complex spheroid viability;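 also: spheroids exposed to compounds for seven days; 100% = DMSO vehicle control viability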
measurement description: Anticancer human tumor 695427-040-R-J1-PDC patient-derived colon adenocarcinoma cell line growth inhibition [POLQ]
setup conditions: second compound 1 µM; first compound 3.16 µM; hits give low values
The reply should contain only the number, in %.

compound	value
COc1cc2cc(C(=O)CCC(=O)O)sc2cc1OC + Cc1cccc(N(C)C(=O)C2C(O)CCN2c2nc(C)cc(C(F)(F)F)c2C#N)c1	103
COc1cccc2c1C(=O)c1c(O)c3c(c(O)c1C2=O)CC(O)(C(=O)CO)CC3OC1CC(N)C(O)C(C)O1 (stereo not given) + Cc1cccc(N(C)C(=O)C2C(O)CCN2c2nc(C)cc(C(F)(F)F)c2C#N)c1	67.5
CCc1cc2c(N3CCc4c(cc(Cn5ccnc5)cc4-c4cn(C)nc4C(F)(F)F)C3=O)ccnc2c(OC)n1 + COC1C(OC(N)=O)C(O)C(Oc2ccc3c(O)c(NC(=O)c4ccc(O)c(CC=C(C)C)c4)c(=O)oc3c2C)OC1(C)C	111
C=CC(=O)N1CCN(c2nc(=O)n(-c3c(C)ccnc3C(C)C)c3nc(-c4c(O)cccc4F)c(F)cc23)C(C)C1 (stereo not given) + Nc1ccc(C#CCN(C(=O)Cc2ncc(C(F)(F)F)cc2C(F)(F)F)c2ccc(F)cc2)nn1	107

Request: Reported viability, T/C for 695427-040-R-J1-PDC complex spheroid viability, given CC1COCCN1c1cc(-c2ccnn2C)c2ccnc(-c3ccn[nH]3)c2n1 (stereo not given) + Nc1ccc(C#CCN(C(=O)Cc2ncc(C(F)(F)F)cc2C(F)(F)F)c2ccc(F)cc2)nn1 ?
Result: 59.7
